Values compiled from patent US9580430B2.

# System: MOLM-13
# assayDetails: Cell growth inhibition, MOLM-13 leukemia cells (CellTiter-Glo)
# Assay type: cell-based
# cond: Homo sapiens, MOLM-13, 96 h; 4 days; read-out: IC50 (nM) MOLM-13 Cell Line (CellTiter-Glo assay)
quantity: IC50 (nM)

COc1cc2c(cc1-c1c(C)noc1C)[nH]c1nc(C)nc(Nc3nn(C)c4ccc(F)cc34)c12	178
COc1cc2c(cc1-c1c(C)noc1C)[nH]c1nc(C)nc(Nc3sc(-c4ncco4)nc3-c3ccccc3)c12	52.6

[I] COc1cc2c(cc1-c1c(C)noc1C)[nH]c1nc(C)nc(Sc3nnc(C)n3C(C)C)c12
[II] COc1cc2c(cc1-c1c(C)noc1C)[nH]c1nc(C)nc(Nc3cc(C(F)(F)F)nn3C(C)(C)C)c12
I need your help: which of the pair I , II has higher IC50? State your choice using its label. II

###

# measuredTarget: recombinant BRD4 BD2 (Homo sapiens)
# Construct: for recombinant BRD4 BD1 and BRD4 BD2 proteins
# assayDetails: Competitive fluorescence-polarization (FP) binding assay, BRD4 BD2; also: probe 1.5 nM
# cond: competitive FP assay; protein 6 nM, probe […]; read-out: IC50 (nM) BRD4 BD2
quantity: IC50 (nM)

Past entries and their recorded results:
COc1cc2c(cc1-c1c(C)noc1C)[nH]c1nc(C)nc(Nc3c(C)cnn3C3CCC3)c12	3.6
COc1cc2c(cc1-c1c(C)noc1C)[nH]c1nc(C)nc(Nc3cc(C)nn3-c3ccccc3)c12	21.8
COc1cc2c(cc1-c1c(C)noc1C)[nH]c1nc(C)nc(Nc3c(C)cnn3C(C)C)c12	6.5

[I] COc1cc2c(cc1-c1c(C)noc1C)[nH]c1nc(C)nc(Nc3c(F)c(C4CC4)nn3C)c12
[II] COc1cc2c(cc1-c1c(C)noc1C)[nH]c1nc(C)nc(Nc3c(C)c(C)nn3C(C)C)c12
[III] COc1cc2c(cc1-c1c(C)noc1C)[nH]c1nc(C)nc(Nc3cccc4c3ccn4C)c12
Please order the records by their reported IC50, lowest number first. Reply: labels, ordered per the request. II, III, I

[a] COc1cc2c(cc1-c1c(C)noc1C)[nH]c1nc(C)nc(Nc3cnn(C)c3C)c12
[b] COc1cc2c(cc1-c1c(C)noc1C)[nH]c1nc(C)nc(Nc3cn(C)nc3C(C)C)c12
Decide: a or b , by lowest recorded IC50. Which one? Tell me its label. b

###

# System: MOLM-13
# assayDetails: Cell growth inhibition, MOLM-13 leukemia cells (CellTiter-Glo)
# Assay type: cell-based
# cond: Homo sapiens, MOLM-13, 96 h; 4 days; read-out: IC50 (nM) MOLM-13 Cell Line (CellTiter-Glo assay)
quantity: IC50 (nM)

COc1cc2c(cc1-c1c(C)noc1C)[nH]c1nc(C)nc(Nc3scnc3C(C)(C)C)c12	2420
COc1cc2c(cc1-c1c(C)noc1C)[nH]c1nc(C)nc(Nc3c(C(C)C)nn(C)c3C)c12	13.2

[A] COc1cc2c(cc1-c1c(C)noc1C)[nH]c1nc(C)nc(Nc3ccc(F)c(Cl)c3)c12
[B] COc1cc2c(cc1-c1c(C)noc1C)[nH]c1nc(C)nc(Nc3c(C(C)C)nn(C)c3C(C)C)c12
Could you check which of A and B has a smaller value for IC50? Please identify the chosen entry by its label. A
(A: 8 nM, B: 24 nM)

[P] COc1cc2c(cc1-c1c(C)noc1C)[nH]c1nc(C)nc(Nc3cccc4c3cnn4C)c12
[Q] COc1cc2c(cc1-c1c(C)noc1C)[nH]c1nc(C)nc(Nc3cccc4c3ccn4C)c12
[R] COc1cc2c(cc1-c1c(C)noc1C)[nH]c1nc(C)nc(Nc3nn(C)c4ccncc34)c12
Which order do these items take when sorted by rising IC50? List them. Hello, could you send the labels back in the order asked? Thank you. R, Q, P
(R: 23.9 nM, Q: 49 nM, P: 74 nM)
